Assay: Inhibition of PKA at 10 uM by HTRF assay relative to control
Readout: inhibition (%)
I only need the number, in %, no unit after it.

Some compounds with known inhibition results, for comparison:
* O=C(C1CCN(c2nccc(Nc3ccccc3)n2)CC1)N1CC[C@@H](O)C1 | 0
* COc1cccc(Nc2cc(Nc3cccc(C(=O)NCCCn4ccnc4)c3)nc(N)n2)c1 | 13

Okay, now this compound:
// field: inhibition; key: `COC[C@@H]1CCCN1C(=O)[C@@H]1CCCN1c1cc(Nc2cccc(OC)c2)nc(N)n1` ; value = 0

----------
Target: Mitogen-activated protein kinase 8 (Homo sapiens)
Assay: Inhibition of JNK1 at 10 uM by HTRF assay relative to control
# inhibition annotations
Give the quantity in %, number only.

* Cc1cccc(N(C)c2cc(Nc3cccc(C(=O)N(C)CCc4ccccn4)c3)ncn2)c1 | 0

// `Cc1cccc(Oc2ccnc(N3CCN(CC(=O)Nc4cccc5c4CCCC5)CC3)n2)c1` : inhibition value = 0

Memo: `Cc1cccc(N(C)c2cc(Nc3cccc(C(=O)NCc4ccc(N(C)C)cc4)c3)ncn2)c1` , reported inhibition: 0

----------
Biological target: Cyclin-dependent kinase 2 (Homo sapiens)
Assay: Inhibition of CDK2 at 10 uM by HTRF assay relative to control
Readout: inhibition (%)
Quick reminder: number only, in %, skip the unit.

Worked cases, inhibition given:
- COc1cccc(Nc2cc(Nc3cccc(C(=O)N(C)CCc4ccccn4)c3)nc(N)n2)c1: 1
- CN(C)CC(C)(C)CNC(=O)[C@@H]1CCCN1c1nccc(Nc2ccccc2)n1: 9
- Nc1nc(Nc2ccccc2)cc(N2CCC(C(=O)NCCc3ccccn3)CC2)n1: 17

Would you kindly look at the next entry?
Entry `O=C(NC1Cc2ccccc2C1)c1cccc(Nc2ccnc(N3CCN(c4ccccc4)CC3)n2)c1` — recorded inhibition = 2

----------
Target: Tyrosine-protein kinase ZAP-70 (Homo sapiens) (UniProt P43403)
Sequence (P43403 whole entry): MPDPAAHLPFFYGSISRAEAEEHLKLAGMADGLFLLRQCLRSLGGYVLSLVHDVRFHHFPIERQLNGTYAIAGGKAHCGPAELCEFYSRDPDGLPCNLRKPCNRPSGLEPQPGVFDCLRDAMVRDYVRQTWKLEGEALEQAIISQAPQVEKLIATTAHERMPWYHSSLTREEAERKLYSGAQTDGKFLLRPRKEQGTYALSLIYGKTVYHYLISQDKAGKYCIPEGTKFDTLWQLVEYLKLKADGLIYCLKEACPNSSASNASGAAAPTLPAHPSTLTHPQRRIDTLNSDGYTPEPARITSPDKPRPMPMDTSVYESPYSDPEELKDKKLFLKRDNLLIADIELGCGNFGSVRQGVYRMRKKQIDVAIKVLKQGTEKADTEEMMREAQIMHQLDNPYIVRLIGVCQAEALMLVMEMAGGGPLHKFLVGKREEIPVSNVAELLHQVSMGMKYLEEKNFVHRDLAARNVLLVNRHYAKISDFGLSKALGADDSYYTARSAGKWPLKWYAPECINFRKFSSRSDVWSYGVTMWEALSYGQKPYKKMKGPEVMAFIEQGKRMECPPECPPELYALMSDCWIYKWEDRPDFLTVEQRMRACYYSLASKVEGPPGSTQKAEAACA
Experiment: Inhibition of ZAP70 at 10 uM by HTRF assay relative to control
Label TRUE when inhibition >= 3%; otherwise FALSE.

* Cc1cccc(N(C)c2cc(Nc3cccc(C(=O)N(C)CCc4ccccn4)c3)ncn2)c1 | TRUE

Check the entry `Cc1cccc(Nc2nccc3c2CN(C(=O)c2cc(C)n(C)c2C)CC3)c1` : does inhibition equal or exceed 3%? TRUE

Entry `O=C(NCc1ccncc1)c1cccc(Nc2cc(Nc3cccc(Br)c3)ncn2)c1` : is its inhibition no less than 3%? TRUE

Quick check: does `COc1ccc(-c2noc(CN3CCN(c4cc(Nc5cccc(O)c5)ncn4)CC3)n2)cc1` have inhibition greater than or equal to 3%? FALSE

Reported inhibition at or above 3%? `Cc1cccc(N(C)c2cc(N3CCN(C(=O)Cc4c[nH]c5ccccc45)CC3)ncn2)c1` FALSE

Answer whether inhibition of `Cc1cccc(Oc2ccnc(N3CCC[C@H]3C(=O)NCCCn3ccnc3)n2)c1` is greater than or equal to 3%. FALSE

Has `Cc1cccc(N(C)c2cc(N3CCN(CC(=O)Nc4nc(-c5ccccc5)cs4)CC3)ncn2)c1` a recorded inhibition greater than or equal to 3%? FALSE

inhibition >= 3% for `Cc1cccc(CN2CCN(c3cc(N(C)c4cccc(C)c4)ncn3)CC2)c1` ? TRUE

Would you say `CC(=O)N1CCN(C(=O)c2cccc(Nc3cc(N(C)c4cccc(C)c4)ncn3)c2)CC1` shows inhibition at minimum 3%? TRUE
